# Study Target: KRAS protein containing G12D mutation (Homo sapiens (Human), UniProt P01116, G12D)
# Sequence (P01116 other isoform, or with tags, fused parts or gaps G12D (already in the parent)): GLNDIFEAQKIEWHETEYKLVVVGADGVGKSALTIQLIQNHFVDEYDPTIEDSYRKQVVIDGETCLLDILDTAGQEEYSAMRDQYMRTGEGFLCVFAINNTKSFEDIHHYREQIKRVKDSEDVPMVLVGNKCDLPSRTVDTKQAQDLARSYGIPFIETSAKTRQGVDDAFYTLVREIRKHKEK
# Assay Protocol: SOS-catalyzed nucleotide exchange assay (GNE), TR-FRET
# Format: biochemical
# Study Conditions: biotinylated KRAS G12D, SOS and GTP, 60-minute incubation
Consider the following compounds; for each one, report its log10 of IC50.
Short version: log10 scale, IC50, nM.

Form field: reported log10 of IC50 of CN(C)C[C@@]1(COc2nc(N3C[C@H]4CC[C@@H](C3)N4)c3cc(F)c(-c4c(C(F)(F)F)c(Cl)cc5cnn(C)c45)c(F)c3n2)CC1(F)F (single isomer, unassigned) [Ex. 201b]
1.66

Same question, C[C@]12CC[C@H](CN(c3nc(OC[C@@H]4CC[C@]5(CO)CCCN45)nc4c(F)c(-c5cc(O)cc6cccc(Cl)c56)c(F)cc34)C1)N2 [Ex. 243b] this time
1.36

And what about the compound Cc1nc2[nH]nc(C)c2c(-c2c(F)cc3c(N4C[C@H]5CC[C@@H](C4)N5)nc(OC[C@@]45CCCN4C[C@H](F)C5)nc3c2F)c1C(F)(F)F (single isomer, unassigned) [250b] ?
0.19

Same read-out for C[C@]12CC[C@H](CN(c3nc(OC[C@@]45CCCN4C[C@H](F)C5)nc4c(F)c(-c5cccn6cccc56)c(F)cc34)C1)N2 ?
3.62

Try this compound next: C[C@]12CCC(CN(c3nc(OC[C@]4(CN[C@H]5C[C@@H](O)C5)CC4(F)F)nc4c(F)c(-c5cc(O)cc6cccc(Cl)c56)c(F)cc34)C1)N2 (single isomer, unassigned) [Ex. 216b]
2.91

Now try Cc1c(Cl)cc2[nH]nc(C)c2c1-c1c(F)cc2c(N3CC4CCC(C3)N4)nc(OCC3(CN4CC[C@@H](F)C4)CC3)nc2c1F (single isomer, unassigned) [Ex 71b] .
3.13

Another compound to check: C[C@]12CC[C@H](CN(c3nc(OC[C@@]45CCCN4C[C@H](F)C5)nc4c(F)c(-c5cc(O)cc6cccc(Cl)c56)ncc34)C1)N2
0.39

Subsequent entry: COCCN(C)C[C@@]1(COc2nc(N3CC4CC[C@@](C)(C3)N4)c3cc(F)c(-c4c(C(F)(F)F)c(C)cc5[nH]ncc45)c(F)c3n2)CC1(F)F
2.63

Another compound to look at: COCCNC[C@@]1(COc2nc(N3C[C@H]4CC[C@@](C)(C3)N4)c3cc(F)c(-c4c(C(F)(F)F)c(C)cc5[nH]ncc45)c(F)c3n2)CC1(F)F [compound 205, 2,2,2-trifluoroacetate]
1.97

Consider next the compound Cc1c(C(F)(F)F)c(-c2c(F)cc3c(N4CC5CCC(C4)N5)nc(OC[C@@]45CCCN4C[C@H](F)C5)nc3c2F)c2cn[nH]c2c1F (single isomer, unassigned) [Ex. 166b] in the same way.
0.64

Another: Cc1nc(N)c(F)c(-c2c(F)cc3c(N4CC5CCC(C4)N5)nc(OC[C@@]45CCCN4C[C@H](F)C5)nc3c2F)c1C(F)(F)F (single isomer, unassigned) [Ex. 151b]
1.33

----------
# Test system: AsPC-1 cells containing homozygous KRAS-G12D activating mutation
# Assay Protocol: Cellular phospho-ERK assay with 10% FBS (Examples 107a-256)
# Format: cell-based
# Study Conditions: read-out: IC50 (nM) pERK (cell with FBS 10%); AsPC-1 cells, 10% fetal bovine serum, 2 hours, ratio of p-Erk vs total Erk; TFA
Where a name gives a salt, the structure may show the parent alone.
Result Type: IC50 (nM)
Give the value, in units of nM, as a plain number.

Short answer please: IC50, AsPC-1 cells containing homozygous KRAS-G12D activating mutation, entry C#Cc1cccc2cccc(-c3c(F)cc4c(N5CC6(C)CCC(C)(C5)N6)nc(OC[C@@]56CCCN5C[C@H](F)C6)nc4c3F)c12 (single isomer, unassigned) [Ex. 190a, TFA]
30000

Also need C[C@]12CCC(CN(c3nc(OC[C@@]45CCCN4C[C@H](F)C5)nc4c(F)c(-c5cc(O)cn6ncc(Cl)c56)c(F)cc34)C1)N2 (single isomer, unassigned) [Ex. 230a, TFA] , thanks.
1450

Please give the result for C#Cc1cccc2cccc(-c3c(F)cc4c(N5CC6(C)CCC(C)(C5)N6)nc(OC[C@@]56CCCN5C[C@H](F)C6)nc4c3F)c12 (single isomer, unassigned) [Ex. 190b, TFA] too.
5830

Ok, now C[C@]12CCC(CN(c3nc(OC[C@@]45CCCN4C[C@H](F)C5)nc4c(F)c(-c5cc(O)cn6ncc(Cl)c56)c(F)cc34)C1)N2 (single isomer, unassigned) [Ex. 230b, TFA]
9100
